Reference source for all entries: ChEMBL document CHEMBL1121795

Give half-life at 1000 µM for every item shown.
Test: Half-life was measured in 10% human serum at 1 mM concentration
Format: ADME
Answers are plain numbers, in min.

These solved cases illustrate the format of a correct answer.
1. CCCCCC(=O)OCOC(=O)C1=CCNCC1.O=C(O)/C=C/C(=O)O	3.6
2. CC(C)(C)C(=O)OCOC(=O)C1=CCNCC1.O=C(O)/C=C/C(=O)O	276

Take each entry in turn and give its half-life at 1000 µM.
1. CCCCC(=O)OCOC(=O)C1=CCNCC1.O=C(O)/C=C/C(=O)O
2. O=C(O)/C=C/C(=O)O.O=C(OCOC(=O)C1CCCCC1)C1=CCNCC1
3. O=C(O)/C=C/C(=O)O.O=C(OCOC(=O)c1ccccc1)C1=CCNCC1

Result block:
1. 1.8
2. 1.8
3. 4.2

Take each entry in turn and give its half-life at 1000 µM.
1. CCC(CC)C(=O)OCOC(=O)C1=CCNCC1.O=C(O)/C=C/C(=O)O
2. CC(C)C(=O)OCOC(=O)C1=CCNCC1.O=C(O)/C=C/C(=O)O
3. CC(C)CC(=O)OCOC(=O)C1=CCNCC1.O=C(O)/C=C/C(=O)O

Result block:
[138, 7.8, 43.2]

Take each entry in turn and give its half-life at 1000 µM.
1. CC(=O)OCOC(=O)C1=CCNCC1.O=C(O)/C=C/C(=O)O
2. CCCC(=O)OCOC(=O)C1=CCNCC1.O=C(O)/C=C/C(=O)O

Result block:
[36, 3.6]

----------
Test: Half-life was measured in 10% human serum at 10 mM concentration
Assay type: ADME
Each record's half-life at 10000 µM is compared with 0 (below 20 min), 1 (20 min to below 70 min), 2 (70 min or more) to give its class.

# example entries with known answers
1) CCCCCC(=O)OCOC(=O)C1=CCNCC1.O=C(O)/C=C/C(=O)O	0
2) CCCC(=O)OCOC(=O)C1=CCNCC1.O=C(O)/C=C/C(=O)O	0
3) CC(C)C(=O)OCOC(=O)C1=CCNCC1.O=C(O)/C=C/C(=O)O	1

Query block: Any idea which band `CCC(CC)C(=O)OCOC(=O)C1=CCNCC1.O=C(O)/C=C/C(=O)O` is in?
Result block: 2

Query block: Now give it for `CCCCC(=O)OCOC(=O)C1=CCNCC1.O=C(O)/C=C/C(=O)O` too.
Result block: 0

----------
Assay: Half-life was measured in 0.5 M KCl at 10 mM dose.
Assay type: ADME
Details: 0.5 M KCl solution
measured_quantity: half-life at 10000 µM (h)
One number for each entry, in h.

Query block: Please give the measured half-life at 10000 µM for this molecule: `CCC(=O)OCOC(=O)C1=CCNCC1.O=C(O)/C=C/C(=O)O`
Result block: 11.1

----------
Test: Half-life was measured in 10% human serum at 10 mM of ester
Type: ADME
measured_quantity: half-life at 10000 µM (days)
Numbers only, in days.

1. Br.CCCCOC(=O)C1=CCNCC1	25
2. COC(=O)C1=CCNCC1.Cl	17.9

Query block: Please give the measured half-life at 10000 µM for this molecule: `Br.CCOC(=O)COC(=O)C1=CCNCC1`
Result block: 12.5

----------
Give half-life at 10000 µM for every item shown.
Assay: Half-life was measured in 0.5 M KCl at 10 mM concentration
Format: ADME
Conditions: 0.5 M KCl solution
One number for each entry, in h.

1. CCCCCC(=O)OCOC(=O)C1=CCNCC1.O=C(O)/C=C/C(=O)O	13
2. CC(=O)OCOC(=O)C1=CCNCC1.O=C(O)/C=C/C(=O)O	10.9
3. CCCCC(=O)OCOC(=O)C1=CCNCC1.O=C(O)/C=C/C(=O)O	12
4. O=C(O)/C=C/C(=O)O.O=C(OCOC(=O)c1ccccc1)C1=CCNCC1	9.3
5. CC(C)(C)C(=O)OCOC(=O)C1=CCNCC1.O=C(O)/C=C/C(=O)O	17.1
6. CC(C)C(=O)OCOC(=O)C1=CCNCC1.O=C(O)/C=C/C(=O)O	10.8
7. O=C(O)/C=C/C(=O)O.O=C(OCOC(=O)C1CCCCC1)C1=CCNCC1	10
8. CCC(CC)C(=O)OCOC(=O)C1=CCNCC1.O=C(O)/C=C/C(=O)O	15.7

Take each entry in turn and give its half-life at 10000 µM.
1. CCCC(=O)OCOC(=O)C1=CCNCC1.O=C(O)/C=C/C(=O)O
2. CC(C)CC(=O)OCOC(=O)C1=CCNCC1.O=C(O)/C=C/C(=O)O

Result block:
1: 11.7; 2: 13.3

----------
Assay: Half-life was measured in 10% human serum at 10 mM dose.
Format: ADME
measured_quantity: half-life at 10000 µM

Query block: Please give the measured half-life at 10000 µM for this compound: `CCC(=O)OCOC(=O)C1=CCNCC1.O=C(O)/C=C/C(=O)O`
Result block: 32.4 min

----------
Assay: Half-life was measured in 10% human serum at 1 mM dose.
Format: ADME
measured_quantity: half-life at 1000 µM (min)
Give bare numbers, in min.

Query block: Please give the measured half-life at 1000 µM for this compound: `CCC(=O)OCOC(=O)C1=CCNCC1.O=C(O)/C=C/C(=O)O`
Result block: 10.2

----------
Species: Mus musculus
Assay: Compound was tested for anticonvulsant activity by measuring its effect on convulsions induced by electroshock in mice.
Type: functional
Give Anticonvulsant dose for every item shown.
Numbers only, in mg/kg.

1. CC(=O)OCOC(=O)C1=CCNCC1.O=C(O)/C=C/C(=O)O	5

Take each entry in turn and give its Anticonvulsant dose.
1. CC(C)(C)C(=O)OCOC(=O)C1=CCNCC1.O=C(O)/C=C/C(=O)O
2. Br.CCCCOC(=O)C1=CCNCC1

Result block:
10
40

----------
Experiment: Half-life was measured in 10% human serum at 10 mM concentration
Assay type: ADME
Give log10(half-life at 10000 µM) for every item shown.
Answers are given as log10 of half-life at 10000 µM in h.

These solved cases illustrate the format of a correct answer.
1. O=C(O)/C=C/C(=O)O.O=C(OCOC(=O)c1ccccc1)C1=CCNCC1	-0.40
2. O=C(O)/C=C/C(=O)O.O=C(OCOC(=O)C1CCCCC1)C1=CCNCC1	-0.85
3. CC(C)(C)C(=O)OCOC(=O)C1=CCNCC1.O=C(O)/C=C/C(=O)O	1.17
4. CC(C)CC(=O)OCOC(=O)C1=CCNCC1.O=C(O)/C=C/C(=O)O	0.54

Moving on to the next molecule.
Query block: Please give the measured log10(half-life at 10000 µM) for this molecule: `CC(=O)OCOC(=O)C1=CCNCC1.O=C(O)/C=C/C(=O)O`
Result block: 0.08

----------
Species on record: Mus musculus
Assay: Compound was tested for anticonvulsant activity by measuring its effect on convulsions induced by electroshock in mice.
Assay type: functional
measured_quantity: Anticonvulsant dose

These solved cases illustrate the format of a correct answer.
1) CCC(=O)OCOC(=O)C1=CCNCC1.O=C(O)/C=C/C(=O)O	>80 mg/kg
2) O=C(O)/C=C/C(=O)O.O=C(OCOC(=O)c1ccccc1)C1=CCNCC1	>80 mg/kg

Moving on to the next molecule.
Query block: Please give the measured Anticonvulsant dose for this molecule: Cl.O=C(O)C1=CCNCC1 [ISOGUVACINE HYDROCHLORIDE]
Result block: >80 mg/kg
